All figures here come from the supplement of paper PMC10567573.

Measured protein stability index accompanies every entry in the list below.
B1: TRIM29 (parent)
chain: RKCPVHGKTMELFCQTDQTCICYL

variants of: B1; experiment: protein stability index of a GFP-peptide fusion (GPS, HEK-293T) (PSI 1-6); higher = more stable; conditions: c terminus: a fixed tail appended;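 also: lentivirally expressed fusions sorted by FACS into six bins by GFP to DsRed ratio, PSI derived from sequencing read proportions per bin multiplied by bin number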
Give the value as a plain number.

Please review the following examples before continuing.
{"MUTATION_KEY": "H6P", "NUMERIC_RESULT": 1.98}
{"MUTATION_KEY": "F13P", "NUMERIC_RESULT": 2.4}
{"MUTATION_KEY": "D17Q", "NUMERIC_RESULT": 1.66}
{"MUTATION_KEY": "L24P", "NUMERIC_RESULT": 5.26}
{"MUTATION_KEY": "M10W", "NUMERIC_RESULT": 1.46}

Query (variant): `Y23G` ; field requested: protein stability index
4.98

Field entry: `T19L`
1.59

Same for `Q18Y`
1.42
